- ASSAY OVERVIEW: water solubility
- Type: physicochemical
MEASURED QUANTITY: solubility

INSERT INTO measurements (molecule, result_value) VALUES
  ('CC[C@@H](C(N)=O)N1CCCC1=O [Levetiracetam]', '> 500 mg/mL');
